Test system: Streptococcus pyogenes
protocol: Antimicrobial activity against erythromycin-nonsusceptible Streptococcus pyogenes clinical isolates assessed as resistant isolates by broth microdilution method
Type: functional
Activity by entry:
Answer with a number only, understood to be in %.

Example molecules with recorded Activity:
{"smiles record": "CC1(C)S[C@@H]2[C@H](NC(=O)Cc3ccccc3)C(=O)N2[C@H]1C(=O)O", "Activity / %": 0}
{"smiles record": "CCC[C@@H]1C[C@@H](C(=O)N[C@@H]([C@H]2O[C@H](SC)[C@H](O)[C@@H](O)[C@H]2O)[C@H](C)Cl)N(C)C1", "Activity / %": 28.2}

Lab note: CC[C@H]1OC(=O)[C@H](C)[C@@H](O[C@H]2C[C@@](C)(OC)[C@@H](O)[C@H](C)O2)[C@H](C)[C@@H](O[C@@H]2O[C@H](C)C[C@H](N(C)C)[C@H]2O)[C@](C)(O)C[C@@H](C)C(=O)[C@H](C)[C@@H](O)[C@]1(C)O gave Activity of 99.2

Lab note: C[C@H]1COc2c(N3CCN(C)CC3)c(F)cc3c(=O)c(C(=O)O)cn1c23.C[C@H]1COc2c(N3CCN(C)CC3)c(F)cc3c(=O)c(C(=O)O)cn1c23.O gave Activity of 0.8
